Data origin: PubChem BioAssay (NCI)

test system: SF-539 CNS; assay: NCI tumour cell line growth inhibition, 48 h
Would you mind telling me the reported TGI of each entry?

Ask: // query TGI value for entry Cc1c(C2=C(c3cn(C)c4ccccc34)C(=O)NC2=O)c2ccccc2n1C
Result: > 6.77 µM

Ask: Now consider O=C(O)CNC(=O)c1c2ccccc2nc2ccccc12 .
Result: > 100 µM

Ask: Now consider Cc1ccc(S(=O)OC2C3CC4CC(C3)CC2C4)cc1 (configuration not stated) .
Result: > 100 µM

Ask: Now consider C=CCOC(=O)C1C2OC3(C(C(=O)OC)=C2C(=O)OC)c2ccccc2CCC13 (configuration not stated) .
Result: > 10 µM

Ask: Now consider COc1ccc(N=C2C(=Nc3ccc(OC)cc3)N(c3ccccc3)C(=S)N2N=C=C2Sc3ccccc3N2C)cc1 .
Result: > 100 µM

Ask: Now consider CNS(=O)(=O)NNS(=O)(=O)c1ccc(Cl)cc1 .
Result: > 100 µM

Ask: Now consider COc1ccc(C=O)c(NC(=O)C(C)C)c1 .
Result: > 100 µM

Ask: Now consider C[CH2][Pb]([CH2]C)([CH2]C)[O]C(=O)c1ccc2ccccc2n1 .
Result: > 10 µM

Ask: Now consider c1ccc2c3c([nH]c2c1)C1CCCN1CC3 (configuration not stated) .
Result: > 10 µM

Ask: Now consider C#CCOCC12C=CC(O1)C1C(=O)OCC12 (configuration not stated) .
Result: > 100 µM

Ask: Now consider CCCCCCN(N)C(=O)CC#N .
Result: > 100 µM

Ask: Now consider CCOC(=O)C(=O)Nc1cc(Cl)ccc1Cl .
Result: > 100 µM

Ask: Now consider COCCOCOc1ccc(OCOCCOC)c2c1C(=O)c1ccccc1C2=O .
Result: > 100 µM

Ask: Now consider CCOP(=O)(OCC)C(C)(CC)NC (configuration not stated) .
Result: > 100 µM

Ask: Now consider Nc1ccc(C(=O)NN2C(=O)C(Cl)C2c2ccccc2)cc1 (configuration not stated) .
Result: > 100 µM

Ask: Now consider [N-]=[N+]=C1C(=O)C2CC3CC(C2)CC1C3 .
Result: > 100 µM

Ask: Now consider C[C@@H]1O[C@@H](OC[C@H]2O[C@@H](OCCc3ccc(O)c(O)c3)[C@H](O)[C@@H](O)[C@@H]2OC(=O)/C=C/c2ccc(O)c(O)c2)[C@H](O)[C@H](O)[C@H]1O .
Result: > 100 µM
